- Test system: OVCAR-5 ovarian
- Assay comment: NCI tumour cell line growth inhibition, 48 h
List of TGI values.

{"Compound": "COc1ccc2cccc(C(=N)c3ccc(C)c4c3CCC4)c2c1", "TGI": "18.9 µM"}
{"Compound": "COc1cn2c(cc1=O)COc1ccc(-c3ccccc3)cc1-2", "TGI": "> 100 µM"}
{"Compound": "C/C(=N\\N(C)C)C(CN(C)C)C(c1ccccc1)c1c(O)c2ccccc2oc1=O (centres undefined)", "TGI": "> 100 µM"}
{"Compound": "CCOC(=O)CCC1(C(=O)OC)CCCC1=O (centres undefined)", "TGI": "> 100 µM"}
{"Compound": "CCCCn1cc(C(=O)O)c(=O)c2c3sccc3ccc21", "TGI": "> 100 µM"}
{"Compound": "CN1C(=O)c2cc(Cl)nc3c(NC(=O)c4cccc(Cl)c4)c(Cl)c(NC(=O)c4cccc(Cl)c4)c1c23", "TGI": "30.1 µM"}
{"Compound": "[N-]=[N+]=NC1(c2ccccc2)C(=O)Nc2ccccc2C1=O (centres undefined)", "TGI": "> 100 µM"}
{"Compound": "CCN(CC)CCC(=O)Nc1ccc(Cn2nnc3c2C(=O)c2nnn(Cc4ccc(NC(=O)CCN(CC)CC)cc4)c2C3=O)cc1", "TGI": "3.34 µM"}
{"Compound": "O=C1CSC2(CC(/C=C/C=C/c3ccccc3)=NN2c2cccc(S(=O)(=O)O)c2)N1c1nc2ccccc2s1 (centres undefined)", "TGI": "> 100 µM"}
{"Compound": "Cc1cc(N(CCC#N)S(=O)(=O)c2ccccc2)ccc1C=O", "TGI": "> 100 µM"}
{"Compound": "NC(N)=N/N=C(\\c1ccc(Cl)cc1)C1CC1", "TGI": "39.3 µM"}
{"Compound": "CN(C)CCCn1c2ccccc2c2cnccc21", "TGI": "> 100 µM"}
{"Compound": "C/C(=N\\NS(=O)(=O)c1ccc(C)cc1)c1ccc[n+]([O-])n1", "TGI": "> 100 µM"}
{"Compound": "C=CCc1c(O)c2ccccc2[nH]c1=O", "TGI": "> 100 µM"}
{"Compound": "Cc1ccc([P+](Cc2ccc([N+](=O)[O-])cc2)(c2ccc(C)cc2)c2ccc(C)cc2)cc1", "TGI": "23.3 µM"}
{"Compound": "COc1cc2c3c(c1OC)-c1ccccc1C(C(OC(C)=O)c1ccccc1)C3N(C)CC2 (centres undefined)", "TGI": "> 100 µM"}
{"Compound": "O=C1c2ccccc2-c2ccc(NC(=O)C3CCCCC3C(=O)O)cc21 (centres undefined)", "TGI": "> 100 µM"}
{"Compound": "N#Cc1c(N)c(-c2ccc(Cl)cc2)c(F)c2ccccc12", "TGI": "> 100 µM"}
{"Compound": "CC1=NN(C(=O)CC(=O)Nc2cccc(Cl)c2)C(=O)C1N=Nc1ccc(S(N)(=O)=O)cc1 (centres undefined)", "TGI": "> 100 µM"}
{"Compound": "O=C1NC(=O)/C(=C\\c2ccncc2)N1", "TGI": "> 100 µM"}
{"Compound": "C[C@@H](NC(=O)Cc1cc(F)cc(F)c1)C(=O)N[C@@]1(C)N=C(c2ccccc2)c2ccccc2N(C)C1=O", "TGI": "> 100 µM"}
{"Compound": "CCOP(=O)(OCC)/C(C#N)=C\\c1cccc2ccccc12", "TGI": "> 100 µM"}
{"Compound": "CC1=C(C#N)C(N)=C2C(C)=C(C#N)C(N)=C12", "TGI": "> 100 µM"}
{"Compound": "O=C(N[C@@H]1CCCc2ccccc21)[C@H](CCC(=O)N1CCN(C2CCCCC2)CC1)N1C(=O)[C@@H](N2C(=O)OC[C@@H]2c2ccccc2)[C@H]1/C=C/c1ccccc1", "TGI": "47.5 µM"}
{"Compound": "CCOC(=O)C1C/C(C)=C(/C)SCCCS1 (centres undefined)", "TGI": "> 100 µM"}
{"Compound": "CC(C)OP(=O)(CP(=O)(OC(C)C)OC(C)C)OC(C)C.[CH3][Sn]([Br])([Br])[Br]", "TGI": "> 100 µM"}
{"Compound": "O=C1c2ccccc2NC2C(O)c3ccccc3N12 (centres undefined)", "TGI": "> 100 µM"}
{"Compound": "O=C1OC(c2ccc(O)cc2)(c2ccc(O)cc2)c2cccc3cccc1c23", "TGI": "31.7 µM"}
{"Compound": "O=C(/C=C/N1CCN(c2cccc(C(F)(F)F)c2)CC1)c1ccc(Cl)cc1Cl", "TGI": "> 100 µM"}
